Values compiled from ChEMBL document CHEMBL1156144.

Exercise: state measured half-life for each of the molecules provided.
# assay-remarks: Half life in Sprague-Dawley rat at 2 mg/kg, iv
# Type: ADME, organism-based
# Parameters: dose 2 mg/kg, route intravenous
# test-context: in vivo
Reply numerically in h, unit not repeated.

What value of measured half-life is listed for N#Cc1cc(Cl)cc(Oc2cc(OCc3n[nH]c4ncccc34)cc(Cl)c2Cl)c1 ?
9.4

Query N#Cc1cc(Cl)cc(Oc2cc(OCc3noc4nc(N)ccc34)ccc2Cl)c1 next
5.8

Query N#Cc1cc(Cl)cc(Oc2cc(OCc3noc4nc(-n5ccnc5)ccc34)ccc2Cl)c1 next
1.7

---

Exercise: state measured log10 IC95 for each of the compounds provided.
# System: Human immunodeficiency virus
# assay-remarks: Antiviral activity against HIV with reverse transcriptase K103N mutant infected in human MT2 cells assessed as inhibition of viral replication measuring p24 level after 3 days in presence of 10% fetal bovine serum
# Type: functional
# test-context: Human immunodeficiency virus 1, MT2, Serum, 72 h; read-out: CIC95
# log10 transformed; quantity=IC95; unit=µM

What value of measured log10 IC95 is listed for Cc1cc(OCc2n[nH]c3ncccc23)cc(Oc2cc(Cl)cc(C#N)c2)c1Cl ?
-0.99

Query N#Cc1cc(Cl)cc(Oc2cc(OCc3noc4nc(N)ccc34)cc(F)c2Cl)c1 next
-0.99

Query N#Cc1cc(Cl)cc(Oc2cc(OCc3noc4ncccc34)ccc2Cl)c1 next
-0.99

Query N#Cc1cc(Cl)cc(Oc2cc(OCc3n[nH]c4nc(N)ccc34)cc(F)c2Cl)c1 next
-1.74

Query N#Cc1cc(Cl)cc(Oc2cc(OCc3n[nH]c4ncccc34)cc(Cl)c2Cl)c1 next
-1.47

Query CNc1ccc2c(COc3ccc(Cl)c(Oc4cc(Cl)cc(C#N)c4)c3)noc2n1 next
-0.51

Query N#Cc1cc(Cl)cc(Oc2cc(OCc3noc4nc(-n5ccnc5)ccc34)ccc2Cl)c1 next
-0.99

Query N#Cc1cc(Cl)cc(Oc2cc(OCc3noc4nc(C5=NCCN5)ccc34)ccc2Cl)c1 next
-0.51

Query N#Cc1cc(Cl)cc(Oc2cc(F)c(Cl)c(OCc3n[nH]c4ncccc34)c2)c1 next
-1.96

Query N#Cc1cc(Cl)cc(Oc2cc(OCc3noc4nc(N5CCNCC5)ccc34)ccc2Cl)c1 next
-0.99

Query CN(C)c1ccc2c(COc3ccc(Cl)c(Oc4cc(Cl)cc(C#N)c4)c3)noc2n1 next
-0.51
